Below: a set of entries, each annotated with reported Ki.
Target: M2 muscarinic receptor (Rattus norvegicus)
Construct: Submandibular glands and heart were isolated and placed in ice cold homogenising buffer; from tissue; host or cells: rat heart membrane homogenate
Assay: [3H]-N-methylscopolamine radioligand binding assay, rat heart membranes
Details: Table II; rat heart, [3H]NMS; read-out: Receptor Binding Assay Ki (nM) M2

[
  {
    "MOLECULE": "O=C(N[C@H]1[C@@H]2CN(CCc3ccc4c(c3)OCO4)C[C@@H]21)[C@](O)(c1ccccc1)C1CCCC1 [Compound No. 82]",
    "TESTED_TARGET": "M2 muscarinic receptor (Rattus norvegicus)",
    "Ki / nM": 646
  },
  {
    "MOLECULE": "O=C(NC1C2CN(CCc3ccc4c(c3)OCO4)CC21)C(O)(c1ccccc1)C1CCCC1 (centres unmarked) [Compound No. 66]",
    "TESTED_TARGET": "M2 muscarinic receptor (Rattus norvegicus)",
    "Ki / nM": 237
  },
  {
    "MOLECULE": "CC(C)=CCCN1C[C@@H]2[C@H](C1)[C@H]2NC(=O)C(O)(c1ccccc1)C1CCCCC1 (some centres unmarked) [Compound No. 41]",
    "TESTED_TARGET": "M2 muscarinic receptor (Rattus norvegicus)",
    "Ki / nM": 2940
  },
  {
    "MOLECULE": "CC(C)=CCCN1C[C@@H]2[C@H](C1)[C@H]2NC(=O)[C@](O)(c1ccccc1)C1CCCC1 [Compound No. 81]",
    "TESTED_TARGET": "M2 muscarinic receptor (Rattus norvegicus)",
    "Ki / nM": 564
  },
  {
    "MOLECULE": "CC(C)=CCCN1CC2C(C1)C2NC(=O)C(O)(c1ccccc1)C1CCCC1 (centres unmarked) [Compound No. 65]",
    "TESTED_TARGET": "M2 muscarinic receptor (Rattus norvegicus)",
    "Ki / nM": 1370
  }
]

* * *

Below: a set of entries, each annotated with reported Ki.
Molecular target: M2 muscarinic receptor (Rattus norvegicus)
Construct: Submandibular glands and heart were isolated and placed in ice cold homogenising buffer; from tissue; host or cells: rat heart membrane homogenate
Experiment: [3H]-N-methylscopolamine radioligand binding assay, rat heart membranes
Settings: Table III; rat heart, [3H]NMS; read-out: M2 Ki (nm)

[
  {
    "MOLECULE": "O=C(NC1C2CN(CCc3ccc4c(c3)OCO4)CC21)C(O)(c1ccccc1)C1CCCC1 (stereo not shown)",
    "TESTED_TARGET": "M2 muscarinic receptor (Rattus norvegicus)",
    "Ki": "182 nM"
  },
  {
    "MOLECULE": "Cc1ccc(S(=O)(=O)NC(=O)N2C[C@@H]3[C@H](C2)[C@H]3NC(=O)C(O)(c2ccccc2)C2CCCCC2)cc1 (stereo partly shown)",
    "TESTED_TARGET": "M2 muscarinic receptor (Rattus norvegicus)",
    "Ki": "> 1000 nM"
  },
  {
    "MOLECULE": "COc1ccc(C(O)(C(=O)NC2C3CN(CCC=C(C)C)CC32)C2CCCCC2)cc1 (stereo not shown)",
    "TESTED_TARGET": "M2 muscarinic receptor (Rattus norvegicus)",
    "Ki": "> 1000 nM"
  },
  {
    "MOLECULE": "Cc1cccc(N2CC3C(C2)C3NC(=O)C(O)(c2ccccc2)C2CCCC2)n1 (stereo not shown)",
    "TESTED_TARGET": "M2 muscarinic receptor (Rattus norvegicus)",
    "Ki": "> 10000 nM"
  },
  {
    "MOLECULE": "O=C(N[C@H]1[C@@H]2CN(Cc3ccc4c(c3)OCO4)C[C@@H]21)C(O)(c1ccccc1)C1CCCCC1 (stereo partly shown)",
    "TESTED_TARGET": "M2 muscarinic receptor (Rattus norvegicus)",
    "Ki": "2200 nM"
  },
  {
    "MOLECULE": "CC(C)(C)c1ccc(C(O)(C(=O)NC2C3CN(Cc4ccccc4)CC32)C2CCCCC2)cc1 (stereo not shown)",
    "TESTED_TARGET": "M2 muscarinic receptor (Rattus norvegicus)",
    "Ki": "> 1000 nM"
  },
  {
    "MOLECULE": "Cc1ccc(C(O)(C(=O)NC2C3CN(Cc4ccccc4)CC32)C2CCCCC2)cc1 (stereo not shown)",
    "TESTED_TARGET": "M2 muscarinic receptor (Rattus norvegicus)",
    "Ki": "> 1000 nM"
  }
]

* * *

Molecular target: M3 muscarinic receptor (Rattus norvegicus, UniProt P08483)
Construct: Submandibular glands and heart were isolated and placed in ice cold homogenising buffer; from tissue; host or cells: rat submandibular gland membrane homogenate
Sequence (P08483 whole entry): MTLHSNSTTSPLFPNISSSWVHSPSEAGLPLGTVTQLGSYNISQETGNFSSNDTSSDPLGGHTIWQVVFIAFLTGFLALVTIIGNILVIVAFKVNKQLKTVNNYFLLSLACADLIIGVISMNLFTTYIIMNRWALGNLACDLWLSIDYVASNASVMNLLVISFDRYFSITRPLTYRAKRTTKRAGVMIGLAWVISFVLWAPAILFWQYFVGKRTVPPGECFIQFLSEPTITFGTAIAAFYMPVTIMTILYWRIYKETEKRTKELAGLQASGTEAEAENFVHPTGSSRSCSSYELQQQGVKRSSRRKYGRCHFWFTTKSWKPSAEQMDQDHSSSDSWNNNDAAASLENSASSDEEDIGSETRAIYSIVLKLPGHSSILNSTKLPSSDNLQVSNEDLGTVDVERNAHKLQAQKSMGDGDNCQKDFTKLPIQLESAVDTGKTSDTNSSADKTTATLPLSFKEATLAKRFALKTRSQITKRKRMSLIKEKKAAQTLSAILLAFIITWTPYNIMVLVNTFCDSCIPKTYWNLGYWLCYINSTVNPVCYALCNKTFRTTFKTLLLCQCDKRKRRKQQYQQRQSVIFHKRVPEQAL
Assay: [3H]-N-methylscopolamine radioligand binding assay, rat submandibular gland membranes
Details: Table II; rat submandibular gland, [3H]NMS; read-out: Receptor Binding Assay Ki (nM) M 3

[
  {
    "MOLECULE": "O=C(N[C@H]1[C@@H]2CN(Cc3ccccc3)C[C@@H]21)C(O)(c1ccccc1)C1CCCCC1 (stereo partly shown)",
    "Ki [nM]": 94
  },
  {
    "MOLECULE": "CC(C)=CCCN1CC2C(C1)C2NC(=O)C(O)(c1ccccc1)C1CCCC1 (stereo not shown)",
    "Ki [nM]": 33
  },
  {
    "MOLECULE": "CC(C)=CCCN1C[C@@H]2[C@H](C1)[C@H]2NC(=O)[C@](O)(c1ccccc1)C1CCCC1",
    "Ki [nM]": 12.4
  },
  {
    "MOLECULE": "CC(C)=CCCN1C[C@@H]2[C@H](C1)[C@H]2NC(=O)C(O)(c1ccccc1)C1CCCCC1 (stereo partly shown)",
    "Ki [nM]": 47
  }
]

* * *

Biological target: M2 muscarinic receptor (Rattus norvegicus, UniProt P10980)
Construct: Submandibular glands and heart were isolated and placed in ice cold homogenising buffer; from tissue; host or cells: rat heart membrane homogenate
Sequence (P10980 1-466): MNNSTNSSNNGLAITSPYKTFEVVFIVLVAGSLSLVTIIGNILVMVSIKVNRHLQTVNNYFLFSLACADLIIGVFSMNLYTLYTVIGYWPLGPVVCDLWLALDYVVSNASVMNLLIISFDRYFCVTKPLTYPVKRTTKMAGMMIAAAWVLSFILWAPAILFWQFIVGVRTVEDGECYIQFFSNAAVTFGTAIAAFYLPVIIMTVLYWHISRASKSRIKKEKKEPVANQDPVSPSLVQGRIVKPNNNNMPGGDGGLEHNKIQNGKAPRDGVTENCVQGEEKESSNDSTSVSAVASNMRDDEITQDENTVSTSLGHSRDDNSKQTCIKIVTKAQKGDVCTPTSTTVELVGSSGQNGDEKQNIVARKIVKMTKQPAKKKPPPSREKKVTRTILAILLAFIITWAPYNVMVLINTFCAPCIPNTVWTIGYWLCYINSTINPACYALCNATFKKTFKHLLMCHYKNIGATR
Test: [3H]-N-methylscopolamine radioligand binding assay, rat heart membranes
Settings: Table III; rat heart, [3H]NMS; read-out: M2 pKi (converted)
READOUT: Ki (µM)

[
  {
    "COMPOUND": "O=C(N[C@H]1[C@@H]2CN(Cc3ccccc3)C[C@@H]21)C(O)(c1ccccc1)C1CCCC1 (some centres unmarked)",
    "READOUT": "Ki",
    "SIGN": "=",
    "RESULT": 2.51
  },
  {
    "COMPOUND": "O=C(NC1C2CN(CCc3ccc4c(c3)OCO4)CC21)C(O)(c1ccccc1)C1CCCC1 (centres unmarked)",
    "READOUT": "Ki",
    "SIGN": "=",
    "RESULT": 0.115
  },
  {
    "COMPOUND": "C#CCN1CC2C(C1)C2NC(=O)C(O)(c1ccccc1)C1CCCCC1 (centres unmarked)",
    "READOUT": "Ki",
    "SIGN": ">",
    "RESULT": 1
  },
  {
    "COMPOUND": "CC(C)=CCCN1C[C@@H]2[C@H](C1)[C@H]2NC(=O)[C@](O)(c1ccccc1)C1CCCC1",
    "READOUT": "Ki",
    "SIGN": "=",
    "RESULT": 0.525
  },
  {
    "COMPOUND": "CC(C)=CCCN1CC2C(C1)C2NC(=O)C(O)(c1ccccc1)C1CCCC1 (centres unmarked)",
    "READOUT": "Ki",
    "SIGN": "=",
    "RESULT": 1.35
  }
]

* * *

Target: M3 muscarinic receptor (Rattus norvegicus, UniProt P08483)
Construct: Submandibular glands and heart were isolated and placed in ice cold homogenising buffer; from tissue; host or cells: rat submandibular gland membrane homogenate
Test: [3H]-N-methylscopolamine radioligand binding assay, rat submandibular gland membranes

[
  {
    "COMPOUND": "O=C(N[C@H]1[C@@H]2CN(Cc3ccccc3)C[C@@H]21)C(O)(c1ccccc1)C1CCCC1 (stereo partly shown) [Compound No. 64]",
    "UNIT_ABBREVIATION": "nM",
    "Ki": 68
  }
]
